Reference source for all entries: the supplement of paper PMC9170038

test system: MS2 coat protein; test: apparent KD of MS2 coat protein; designed switch direction (-1 OFF switch, 1 ON switch): -1; higher = weaker reporter binding; details: input ligand: FMN 200 uM
Short version: apparent KD of MS2 coat protein at least 80 nM is 1.0, less is 0.0.

construct sequence	measured target	assigned class
AGAUCGUCAGGAUAUACAUGAGGAUCACCCAUGUGUAGUUCCAAUUGGACUACAACAUGUAGAAGGGACGAUCG [Exclusion 3 (MOD1 of #1 Marzena11)] (Eterna round: R97, puzzle: Exclusion 3)	MS2 coat protein	1.0
AUAAUGUGAGGAUAUCAGUCGUACAGCGAUAGCUGUACGACUGAGAAGGCACAUGAGGAUCACCCAUGUGGUCA [E4/5-A4] (Eterna round: R97, puzzle: Exclusion 4)	MS2 coat protein	1.0
GGAGGCCAGUAAGGAUAUUCAUGGUAGAUUCAUGAAGAAGGUACGGAGUGUCCUGACAUGAGGAUCACCCAUGUAGCCUCCAAG [Betien] (Eterna round: R96, puzzle: Exclusion NG 1)	MS2 coat protein	0.0
AUAAAACGUGUAGGAUAUGCGUGGCGAAGCUAUGCAGAAGGACAUGAGGAUCACCCAUGUUCAAGCGUCUGCGUACAGAUGCUA [JL eng1 1.35 mod 6] (Eterna round: R96, puzzle: Exclusion NG 1)	MS2 coat protein	0.0
UGAUGACAUGAGGAUCACCCAUGUCAGGAUAUUGAAGUUGAAGUGAAAGCUUCGGCUUCGAGAAGGGACUGUCG [-29.3, -26.3 kcal, A 28% sequence 3] (Eterna round: R97, puzzle: Exclusion 1)	MS2 coat protein	0.0
UAUGGUUAAGUCAGGAUAUGCUCGUAGAGGUCUAUGCAGAAGGGACAUGAGGAUCACCCAUGUAUGGUCGUGUU [Ex4 #67] (Eterna round: R97, puzzle: Brourd's mod of Exclusion 4)	MS2 coat protein	1.0
CCGGCUGCUGUGAGGAUAUGCCUGUGGGCCCGCGGGCAGAAGGCACAUGAGGAUCACCCAUGUCCUGCGGUCCC [salish99_bmx4_r4_117] (Eterna round: R97, puzzle: Brourd's mod of Exclusion 4)	MS2 coat protein	0.0
UGUGUGAGACAGGAUAUGCCGGAUGUAUUACUGGUAGAAGGGUCUACAUGAGGAUCACCCAUGUGGCCGGCCGG [Ex6 #83] (Eterna round: R97, puzzle: Exclusion 6)	MS2 coat protein	0.0
AUCUUUGCUCGUCAAAUUUACAUGAGGAUCACCCAUGUCUACCUGAGUGCGUCGGGACUGUACGUCAGCCGGUGGAA [Eternabot (L2) Solution 15] (Eterna round: R97, puzzle: Sensor, turn-off variant 1)	MS2 coat protein	0.0
GUGUUGCGAGGAUAUAUAAGGGUAUGUUCUUGAGGUAUGGAACAUGAGGAUCACCCAUGUAGAAGGUGCAUAAC [JR_Ex2_Sub045] (Eterna round: R97, puzzle: Exclusion 2)	MS2 coat protein	1.0
AGCUAGUGCCGAGGAUAUACAUGAGGAUCACCCAUGUAAGCCAGUCGGUUUCUGACUGGCAAUAUGUAGAAGGCGGCGUUGGCA [JL ENG2 1.49] (Eterna round: R96, puzzle: Exclusion NG 2)	MS2 coat protein	0.0
AACCAGCUAGGAUAUGCUUGCGCGUGUUCUGGUUAUAAUCGACUUGAGGAUCACCCAAGUAGAAGGAGCUGGCG [EX2 #54] (Eterna round: R97, puzzle: Exclusion 2)	MS2 coat protein	1.0
GUCAGCUCGUCAGGAUAUACAUGAGGAUCACCCAUGUGAUCAAUAGCAGCUUCGGCUGCAUUAAUGUAGAAGGGACGAGCUGAC [ENG2/5-B1] (Eterna round: R96, puzzle: Exclusion NG 2)	MS2 coat protein	0.0
GGUCAGACGGUAGGAUAUCCAUAUCGAGUGACCCUUUCAUAACAUGAGGAUCACCCAUGUCGGUGGGAGAAGGGCUGUACGGCG [salish99_ExNG02_R04_002] (Eterna round: R96, puzzle: Exclusion NG 2)	MS2 coat protein	0.0
CUAGCGAUUGUAGGAUAUCGGACUGUUUCAGUCUGAGAAGGACAUGAGGAUCACCCAUGUGAUGCUACGUGAGUAGCACGCUAG [JL ENG1 3.85] (Eterna round: R96, puzzle: Exclusion NG 1)	MS2 coat protein	0.0
GCACUGCGAGGAUAUACAUGAGGAUCACCCAUGUGUCGGCAGCCACGGUAGUACAAGUGUAGAAGGCGCGUUAG [EX3 #47] (Eterna round: R97, puzzle: Exclusion 3)	MS2 coat protein	1.0
GGUCCUUCUGUCAGGAUAUCCAGUAUCAGACAGCAGGAGAAGGGACAUGAGGAUCACCCAUGUAAUAAGAAGAA [Onrean] (Eterna round: R97, puzzle: Brourd's mod of Exclusion 4)	MS2 coat protein	0.0
UUUGGGCCUGUGAGGAUAUCGGGUUUGAAAGGGCCCGAGAAGGCACAUGAGGAUCACCCAUGUAAGGGCCCGGG [-32.7, -30.6 kcal, A 23%, 5a-5abis] (Eterna round: R97, puzzle: Brourd's mod of Exclusion 4)	MS2 coat protein	0.0
